Molecular target: T1, SNTB1, Q13884
T1 sequence (Q13884 107-205, limits assumed, looked up): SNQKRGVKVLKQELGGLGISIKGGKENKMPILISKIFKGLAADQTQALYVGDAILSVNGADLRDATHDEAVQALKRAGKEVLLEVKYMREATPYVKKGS
Experiment: holdup assay
Parameters: key: below the threshold = too weak to quantify, mostly under pKd 3.1 to 4
Settings: plain residues with an end cap or a label only (N-terminal biotin on a linker: ttds)

[
  {
    "binder": "PVRVCEETSL [OTULIN, Q96BN8]",
    "pKd": 4.61
  },
  {
    "binder": "EVVHTPETSV [SLC16A3, O15427]",
    "pKd": 4.76
  },
  {
    "binder": "KKYVDAETSL [SLC4A7, Q9Y6M7]",
    "pKd": 4.46
  },
  {
    "binder": "VDFPPKESSL [ACVR2A, P27037]",
    "pKd": 4.41
  },
  {
    "binder": "SKPTRRETEV [HPV35-E6, P27228]",
    "pKd": 4.68
  }
]
